target or test system: human Mnk2a (Homo sapiens)
Construct: the open reading frames of human Mnk1 and Mnk2a were amplified from cDNA; made in house; host or cells: E. coli BL21
Sequence (Q9HBH9 whole entry): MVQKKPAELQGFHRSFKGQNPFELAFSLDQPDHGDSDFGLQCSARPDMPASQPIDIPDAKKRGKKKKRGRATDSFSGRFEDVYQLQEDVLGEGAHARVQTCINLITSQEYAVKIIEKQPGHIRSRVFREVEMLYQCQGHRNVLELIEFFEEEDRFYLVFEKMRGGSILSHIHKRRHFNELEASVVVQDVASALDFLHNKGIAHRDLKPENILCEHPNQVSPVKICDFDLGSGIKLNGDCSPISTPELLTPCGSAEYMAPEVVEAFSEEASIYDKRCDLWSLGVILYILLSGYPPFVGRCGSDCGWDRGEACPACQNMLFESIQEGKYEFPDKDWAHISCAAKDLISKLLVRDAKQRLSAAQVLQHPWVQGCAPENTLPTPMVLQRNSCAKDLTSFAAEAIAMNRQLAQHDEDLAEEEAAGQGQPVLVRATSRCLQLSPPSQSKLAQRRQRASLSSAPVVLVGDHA
assay: Mnk2a in vitro kinase assay (indirect fluorescence polarization)
Format: biochemical
test settings: assay of example 2a; 20 μM ATP, 2.5 nM pre-activated Mnk2a; read-out: MNK2 Inhibition (IC50)
Decide using IC50 alone. Strictly below 10 nM: True. Equal to or above 10 nM: False.

// query Dear colleague, could you confirm whether IC50 of Cc1c(Br)sc2ncnc(Nc3ccc(F)cc3OC(C)C)c12 falls below 10 nM? Thanks.
// result False

// query Dear colleague, could you confirm whether IC50 of CCOc1cc(C(N)=O)ccc1Nc1ncnc2sc(Cl)c(C)c12 falls below 10 nM? Thanks.
// result False

// query Dear colleague, could you confirm whether IC50 of Cc1c(Br)sc2ncnc(Nc3ccc(F)cc3OC(C)CNS(C)(=O)=O)c12 (stereo not drawn) falls below 10 nM? Thanks.
// result True

// query Dear colleague, could you confirm whether IC50 of Cc1c(Cl)sc2ncnc(Nc3ccc(F)cc3OC(C)CNS(C)(=O)=O)c12 (stereo not drawn) falls below 10 nM? Thanks.
// result True

// query Dear colleague, could you confirm whether IC50 of Cc1c(Br)sc2ncnc(Nc3ccc(F)cc3OC(C)CN)c12 (stereo not drawn) falls below 10 nM? Thanks.
// result False
